Experiment: method code SF, from PMID: 5081587
Measured Metric: logP

Guide cases for logP, answers given:
O=NN(CCCl)C(=O)NC1CCCCC1Cl (stereo not drawn)	2.73
O=P1(N(CCCl)CCCl)NCCCO1 (stereo not drawn)	0.63
O=NN(CCF)C(=O)NC1CCSCC1	1.43
O=NN(CCCl)C(=O)NC1C=CCCC1 (stereo not drawn)	2.45

[I] O=NN(CCCl)C(=O)NC1CSCSC1
[II] O=NN(CCCl)C(=O)NC1CCC(=O)NC1=O (stereo not drawn)
[III] O=NN(CCCl)C(=O)NC1CC2CCC1C2 (stereo not drawn)
Order the records so the highest logP appears first and the lowest last. // respond by listing labels in the order requested
III, I, II

* * *

Test: method code SF, from PMID: 5081587
Measured Metric: logP

Guide cases for logP, answers given:
O=NN(CCCl)C(=O)NC1CCSCC1	2.07
O=NN(CCCl)C(=O)NCCCl	1.53
O=NN(CCCl)C(=O)NC1CCCC1	2.19

[P] O=NN(CCF)C(=O)NC1CSCSC1
[Q] CN(C)/N=N/c1nc[nH]c1C(N)=O
[R] O=NN(CCCl)C(=O)NC1CCS(=O)(=O)CC1
In this exercise, place the 3 compounds in ascending sequence of their recorded logP. // respond by listing labels in the order requested
Q, R, P
(Q: -0.24, R: 0.19, P: 1.54)
